test system: UO-31 renal; test: NCI tumour cell line growth inhibition, 48 h
reportedProperty: TGI

Past entries and their recorded results:
O=c1c2cccnc2oc2c(Cl)cc(-c3nn[nH]n3)cc12    > 100 µM
O=[N+]([O-])c1ccc2c(c1)C(N1CCN(CCO)CC1)Cc1ccc(F)cc1S2 (configuration not stated)    18.1 µM
CCn1c(CCCc2nc3c([nH]2)c(=O)n(C)c(=O)n3C)nc2c1c(=O)n(C)c(=O)n2C    > 100 µM
CCN1CCN(C(=O)[C@]23CC[C@@H](C)[C@H](C)[C@@H]2C2=CC[C@@H]4[C@@]5(C)CCC(=O)C(C)(C)[C@@H]5CC[C@@]4(C)[C@]2(C)CC3)CC1    1.42 µM
Cc1nc(N)c(N2CCN(S(=O)(=O)N(Cc3ccccc3)Cc3ccccc3)CC2)c(=O)[nH]1    > 100 µM
CC(=O)/C=C(/C)[O-].CC(=O)/C=C(/C)[O-].CC(=O)[CH-]C(C)=O.CC(=O)[CH-]C(C)=O.[Zr+4]    > 100 µM

Shift focus to the following entry.
If you can, please state the reported TGI value of O=C(CSc1nc2ccc(I)cc2c(=O)n1Cc1ccccc1)Nc1ccccc1 .
1.55 µM

* * *

tested on: MDA-MB-435; assay: NCI tumour cell line growth inhibition, 48 h
reportedProperty: log10(TGI) (log10 of the value in µM)
Base-10 log of TGI, unit µM.

O=C1OC(OC/C(Br)=C(\Br)COC2OC(=O)C(Cl)=C2Cl)C(Cl)=C1Cl (centres undefined)    1.33
COCC(C#N)NC1CC(OC2CC(O)(C(=O)CO)Cc3c(O)c4c(c(O)c32)C(=O)c2c(OC)cccc2C4=O)OC(C)C1O (centres undefined)    -0.46
CC(C)[C@@H](C(=O)O[C@@H]1/C=C/C(=O)O[C@@H](C)CCC/C=C/[C@@H]2C[C@H](O)C[C@H]21)N(C)C    1.62
Cc1nc(N)c(N2CCN(S(=O)(=O)N(Cc3ccccc3)Cc3ccccc3)CC2)c(=O)[nH]1    1.95
O=C(Nc1ccc(Cl)c(Cl)c1)c1ccc(NC2=C(Cl)C(=O)N(Cc3ccccc3)C2=O)cc1    1.29
COC(=O)C1=C(C)NC(=S)NC1c1ccc(N(CCCl)CCCl)cc1Cl (centres undefined)    1.57

If you can, please state the reported log10(TGI) value of Cc1cc(OCc2ccc(C(F)(F)F)cc2)c2c(c1)C(=O)C=C(NCCN1CCCC1)C2=O .
0.48

* * *

Listing of entries alongside the reported GI50.
system: NCI-H226 lung; test: NCI tumour cell line growth inhibition, 48 h

N#C/C(=C\c1ccc[nH]1)c1cc(-c2ccc(Cl)cc2)nn1-c1ccccc1    7.71 µM
CCCCCCC(=O)NC1=C(N2CC2)C(=O)C(NC(=O)CCCCCC)=C(N2CC2)C1=O    > 100 µM
C[C@@H]1CC[C@@H]2[C@@H]1[C@H](OC(=O)/C=C/C1CCCCC1)[C@]1(C3CCCCC3)C[C@@H](OC(=O)CO)[C@@]2(C)O1    14.3 µM
Cc1cc(OCc2ccc(C(F)(F)F)cc2)c2c(c1)C(=O)C=C(NCCN1CCCC1)C2=O    14.6 µM
CC(=O)C1=C(C)N(Cc2ccccc2)C2(O)C=CC(=O)C3=C(O)c4ccccc4C(=O)C312 (configuration not stated)    8.12 µM
CCOC(=O)N1CCC(N=C2CSc3nnc(-c4cc(C(F)(F)F)cc(C(F)(F)F)c4)n3N2)CC1    2.16 µM

If you can, please state the reported GI50 value of NS(=O)(=O)c1ccc(-n2nc3c(c2-c2cccs2)Cc2ccccc2-3)cc1 .
4.9 µM

* * *

system: SR leukemia; assay: NCI tumour cell line growth inhibition, 48 h
Listing of entries alongside the reported log10 of TGI.
Base-10 log of TGI, unit µM.

COc1cc(C2c3cc4c(cc3[C@@H](NC3CCN(Cc5ccccc5)CC3)C3COC(=O)[C@H]23)OCO4)cc(OC)c1O (stereo partly specified)    -1.70
CN1CCN(Cc2ccc(NC(=O)c3cncc(C#Cc4ccc(N)nc4)c3)cc2C(F)(F)F)CC1    0.55
O=C(CCCCCNC(=O)c1ccc(Cl)cc1)NO    1.73
N=C(N)SCc1nc(-c2ccc(Cl)cc2)no1    1.34

Shift focus to the following entry.
If you can, please state the reported log10 of TGI value of C[C@@H]1CC[C@@H]2[C@@H]1[C@H](OC(=O)/C=C/C1CCCCC1)[C@]1(C3CCCCC3)C[C@@H](OC(=O)CO)[C@@]2(C)O1 .
1.52

* * *

Listing of entries alongside the reported TGI.
tested on: BT-549 breast; experiment: NCI tumour cell line growth inhibition, 48 h

CC1(C)CC(=O)c2c(N)n[nH]c2C1    > 100 µM
C[Si](C)(C)OC1(C#N)c2ccccc2CCCC12CCCC2 (stereo unspecified)    > 100 µM
CCOC(=O)c1sc2nc(SC)nc3c2c1NCN3C    > 100 µM

If you can, please state the reported TGI value of CC(C)(C)OC(=O)N1C(=O)C2CCCC21 (stereo unspecified) .
> 100 µM

If you can, please state the reported TGI value of Cc1ccc(C)n1-c1ccccc1C1C=Cn2c(=O)oc3c(OC(C)C)c(OC(C)C)c(O)c1c32 (stereo unspecified) .
> 100 µM

If you can, please state the reported TGI value of O=[N+]([O-])c1c(O)c2nonc2c2nn(-c3ccccc3)nc12 .
> 100 µM

* * *

Listing of entries alongside the reported GI50.
system: HCC-2998 colon; test: NCI tumour cell line growth inhibition, 48 h

Past entries and their recorded results:
CC(C)[C@@H](C(=O)O[C@@H]1/C=C/C(=O)O[C@@H](C)CCC/C=C/[C@@H]2C[C@H](O)C[C@H]21)N(C)C    20000 nM
Cc1ccc2sc3c(NCCCN)nc4ccccc4c3c(=O)c2c1    1740 nM
Cc1ccsc1C(NC(=O)c1ccccc1)c1cc(Cl)c2cccnc2c1O (stereo not given)    775 nM
CCN1CCN(C(=O)[C@]23CC[C@@H](C)[C@H](C)[C@@H]2C2=CC[C@@H]4[C@@]5(C)CCC(=O)C(C)(C)[C@@H]5CC[C@@]4(C)[C@]2(C)CC3)CC1    922 nM

If you can, please state the reported GI50 value of CCOC(=O)N1CCC(N=C2CSc3nnc(-c4cc(C(F)(F)F)cc(C(F)(F)F)c4)n3N2)CC1 .
2250 nM

* * *

Listing of entries alongside the reported TGI.
test system: UO-31 renal; assay: NCI tumour cell line growth inhibition, 48 h
Numbers only; they are read as µM.

Cc1ccc2sc3c(NCCCN)nc4ccccc4c3c(=O)c2c1    2.98
CC1=C(CCC(C)CO)O[C@H]2C[C@H]3[C@@H]4CC[C@H]5C[C@@H](O)CC[C@]5(C)[C@H]4CC(=O)[C@]3(C)[C@@H]12 (stereo not given in full)    33.3
CCOC(=O)N1CCC(N=C2CSc3nnc(-c4cc(C(F)(F)F)cc(C(F)(F)F)c4)n3N2)CC1    5.4
OC(CCN1CCN(CCOC(c2ccccc2)c2ccccc2)CC1)c1ccccc1 (stereo not given)    44

Shift focus to the following entry.
If you can, please state the reported TGI value of CC(NNC(=S)N1CCN(c2ccccn2)CC1)c1nccc2ccccc12 (stereo not given) .
8.34

* * *

test system: NCI-H23 lung; assay: NCI tumour cell line growth inhibition, 48 h
Listing of entries alongside the reported TGI.

CCOC(=O)c1nc2ccccc2nc1Nc1ccc(C(=O)OC)s1    > 100 µM

If you can, please state the reported TGI value of CC(=O)OC1CC2(C)C(=CC1C1SCCS1)CCC1C2CCC2(C)C(OC(C)=O)CCC12 (configuration not stated) .
> 100 µM

If you can, please state the reported TGI value of CCC(O)CCCCCCCCCCCCCCC(=O)O (configuration not stated) .
> 100 µM

* * *

system: SK-MEL-28 melanoma; experiment: NCI tumour cell line growth inhibition, 48 h
reportedProperty: TGI

O=C(Nc1cccc([N+](=O)[O-])c1)c1cccc(C(=O)Nc2cccc([N+](=O)[O-])c2)c1    > 100 µM

If you can, please state the reported TGI value of NS(=O)(=O)c1ccc(-n2nc3c(c2-c2cccs2)Cc2ccccc2-3)cc1 .
58.4 µM

If you can, please state the reported TGI value of O=c1oc2ccccc2c(O)c1C(c1ccc(OCc2ccccc2)cc1)c1c(O)c2ccccc2oc1=O .
> 100 µM

If you can, please state the reported TGI value of CC1=CC(C)=N/C(=N/S(=O)(=O)c2cc(C)c(Cl)cc2SCc2ccccc2)NN1 .
> 100 µM

If you can, please state the reported TGI value of CCC[N+](C)(C)CCCNC(=O)c1c(O)c2ccccc2[nH]c1=O .
> 100 µM

If you can, please state the reported TGI value of C=C1c2c(n(S(=O)(=O)c3ccccc3)c3ccccc23)[C@@]2(C(=O)OC)CC3C=CC2N1C3 .
> 100 µM

If you can, please state the reported TGI value of CC1(c2ccc(F)cc2)C2C(=O)NC(=O)C1C(=O)NC2=O (stereo unspecified) .
> 100 µM

If you can, please state the reported TGI value of C=CC1=C(C)C(/C=c2\[nH]/c(=C/c3[nH]c(CC4NC(=O)C(C)/C4=C\C)c(C)c3CCC(=O)O)c(CC(=O)O)c2C)=NC1=O (stereo unspecified) .
> 100 µM

If you can, please state the reported TGI value of OC(c1cc(C(F)(F)F)nc2c(Cl)cc(Cl)cc12)C1CCCCN1 (stereo unspecified) .
29.5 µM

If you can, please state the reported TGI value of c1ccc2c(c1)nnn2C1CCCCO1 (stereo unspecified) .
> 100 µM

If you can, please state the reported TGI value of OC(CCN1CCN(CCOC(c2ccccc2)c2ccccc2)CC1)c1ccccc1 (stereo unspecified) .
34.4 µM

If you can, please state the reported TGI value of O=C(CC(=O)N1N=C(c2ccccc2)C(N=Nc2ccc(S(=O)(=O)CCOS(=O)(=O)O)cc2)C1=O)Nc1ccc(Cl)cc1 (stereo unspecified) .
> 100 µM

If you can, please state the reported TGI value of O=C(CC12C3C4C1C1C2C3C41CC(=O)NO)NO (stereo unspecified) .
> 100 µM

If you can, please state the reported TGI value of COC1C(O)C(C)OC(O[C@H]2CC[C@@]3(C)C(CC[C@@H]4[C@@H]3CC[C@]3(C)[C@@H](C(C)OC5OC(CO)C(O)C(O)C5O)CC[C@]43O)C2)C1O (stereo partly specified) .
> 25 µM

If you can, please state the reported TGI value of COc1cc(/C=C2\[C@@H]3NC(Cc4c(OC)c(C)c(OC)c(OC)c43)C(=O)N2Cc2ccccc2)c(OC)c(C)c1OC .
> 100 µM

If you can, please state the reported TGI value of CCCN=C1NC(C)=CSC(Nc2ccccc2)=C1C#N .
> 100 µM
